TARGET_SYSTEM: CCAAT/enhancer-binding protein beta (Homo sapiens) (UniProt P17676)
Sequence (P17676 whole entry, looked up): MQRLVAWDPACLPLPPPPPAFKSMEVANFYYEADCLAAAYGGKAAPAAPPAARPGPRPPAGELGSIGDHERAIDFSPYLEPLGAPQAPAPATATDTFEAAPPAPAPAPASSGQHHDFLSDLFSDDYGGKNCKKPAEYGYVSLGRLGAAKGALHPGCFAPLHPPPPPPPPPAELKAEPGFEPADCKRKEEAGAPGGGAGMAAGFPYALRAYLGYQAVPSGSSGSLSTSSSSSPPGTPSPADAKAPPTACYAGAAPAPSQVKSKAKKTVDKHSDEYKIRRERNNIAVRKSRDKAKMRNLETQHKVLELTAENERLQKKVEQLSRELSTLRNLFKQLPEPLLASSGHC
PROTOCOL_NOTES: ATG_C_EBP_CIS: Attagene CIS-FACTORIAL HepG2 Assay for human CCAAT/Enhancer Binding Protein (C/EBP) beta (AID 2282927)
REPORTED_CONDITIONS: HepG2 Attagene cis-factorial transcription factor reporter; actives raise or lower the signal
Active and inactive are the calls of the source. How the source made its calls: active means hit-call score of the fitted dose curve at least 0.9, where 1 is the maximum; inactive means score below 0.9.
Form entry, call: pick from 1 for active, -1 for inactive

{"COMPOUND": "c1ccc2[nH]c(-c3cscn3)nc2c1", "LABEL": -1}
{"COMPOUND": "CCCCC(CC)COC(=O)c1ccccc1C(=O)O (stereo unspecified)", "LABEL": -1}
{"COMPOUND": "CC(C)(C)[C@@H](O)[C@@H](Cc1ccc(Cl)cc1)n1cncn1", "LABEL": 1}
{"COMPOUND": "CCOC(=O)[C@H](C)Oc1ccc(Oc2nc3ccc(Cl)cc3o2)cc1", "LABEL": -1}
{"COMPOUND": "CCSC(=O)N(CC(C)C)CC(C)C", "LABEL": -1}

Could you now look at the following compound, please?
Lab log entry: O=C(c1ccc(O)cc1O)c1ccc(O)cc1O — outcome as called in the assay?
-1
